Entries and their activation at 1.1 µM values follow.
- Assayed system: human GPR131 (Homo sapiens, UniProt Q8TDU6)
- Construct: expressed in transfected cells
- Sequence (Q8TDU6 1-330): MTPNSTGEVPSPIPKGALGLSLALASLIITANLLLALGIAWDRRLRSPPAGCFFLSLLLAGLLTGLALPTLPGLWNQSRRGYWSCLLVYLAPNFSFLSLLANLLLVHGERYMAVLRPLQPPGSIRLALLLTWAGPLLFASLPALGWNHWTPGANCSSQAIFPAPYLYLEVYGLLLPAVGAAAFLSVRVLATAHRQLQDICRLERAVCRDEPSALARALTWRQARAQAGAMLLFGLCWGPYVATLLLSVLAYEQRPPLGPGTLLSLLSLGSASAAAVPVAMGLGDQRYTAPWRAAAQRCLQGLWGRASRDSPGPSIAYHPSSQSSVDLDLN
- Protocol text: Stimulation of cAMP (agonism of GPR131), FRET cAMP assay
- Format: cell-based
- Particulars: 0.5 h; 1.1 μM compound; compared to maximal stimulatory activity of lithocholic acid (LCA) determined at 3.3 μM; stable cell line expressing human GPR131; 37° C. for 30 minutes; read-out: Percent Activity @ 1.1 μM (of 3.3 uM LCA) (%)

# Compound, Assayed system, Unit abbreviation, activation at 1.1 µM
data = [
    ("FC(F)(F)c1ccc(-n2nnnc2-c2c(-c3cc(Cl)ccc3Cl)nc3cccnn23)cc1 [Compound 563]", "human GPR131 (Homo sapiens, UniProt Q8TDU6)", "%", 99.5),
    ("O=c1[nH]nc(-c2c(-c3cc(Cl)ccc3Cl)nc3ccccn23)n1-c1ccc(Cl)cc1 [Compound 525]", "human GPR131 (Homo sapiens, UniProt Q8TDU6)", "%", 83.3),
    ("N#Cc1ccc(-n2ccnc2-c2c(-c3cc(Cl)ccc3Cl)nc3ccccn23)cc1 [Compound 567]", "human GPR131 (Homo sapiens, UniProt Q8TDU6)", "%", 99.9),
    ("Clc1ccc(-n2ccnc2-c2c(-c3ccccc3Cl)nc3ccccn23)cc1 [Compound 557]", "human GPR131 (Homo sapiens, UniProt Q8TDU6)", "%", 99.7),
    ("FC(F)(F)c1ccc(-n2cnnc2-c2c(-c3cc(Cl)ccc3Cl)nc3ccccn23)cc1 [Compound 513]", "human GPR131 (Homo sapiens, UniProt Q8TDU6)", "%", 100),
    ("Clc1ccc(-n2ccnc2-c2c(-c3cc(Cl)ccc3Cl)nc3n2CCCC3)cc1 [Compound 560]", "human GPR131 (Homo sapiens, UniProt Q8TDU6)", "%", 100),
    ("Clc1ccc(-n2ccnc2-c2c(-c3cc(Cl)ccc3Cl)nc3ccccn23)cc1 [Compound 506]", "human GPR131 (Homo sapiens, UniProt Q8TDU6)", "%", 99.4),
    ("CC(C)c1ccc(-n2cnnc2-c2c(-c3cc(Cl)ccc3Cl)nc3ccccn23)cc1 [Compound 530]", "human GPR131 (Homo sapiens, UniProt Q8TDU6)", "%", 98.9),
    ("Cn1ccc2cc(-n3cnnc3-c3c(-c4cc(Cl)ccc4Cl)nc4ccccn34)ccc21 [Compound 536]", "human GPR131 (Homo sapiens, UniProt Q8TDU6)", "%", 100),
    ("Clc1ccc(-n2nnnc2-c2c(-c3cc(Cl)ccc3Cl)nc3ccccn23)cc1 [Compound 552]", "human GPR131 (Homo sapiens, UniProt Q8TDU6)", "%", 100),
    ("CCc1ccc(-n2cnnc2-c2c(-c3cc(Cl)ccc3Cl)nc3ccccn23)cc1 [Compound 529]", "human GPR131 (Homo sapiens, UniProt Q8TDU6)", "%", 99.6),
    ("Clc1cccc(-c2nc3ccccn3c2-c2nncn2-c2ccc3cn[nH]c3c2)c1 [Compound 568]", "human GPR131 (Homo sapiens, UniProt Q8TDU6)", "%", 96),
    ("Cc1nnc(-c2c(-c3cc(Cl)ccc3Cl)nc3ccccn23)n1-c1ccc(Cl)cc1 [Compound 505]", "human GPR131 (Homo sapiens, UniProt Q8TDU6)", "%", 99.1),
    ("Clc1ccc(-n2ncnc2-c2c(-c3ccccc3Cl)nc3ccccn23)cc1 [Compound 503]", "human GPR131 (Homo sapiens, UniProt Q8TDU6)", "%", 97.4),
    ("Clc1ccc(Cl)c(-c2nc3cccnn3c2-c2nncn2-c2ccc3cn[nH]c3c2)c1 [Compound 523]", "human GPR131 (Homo sapiens, UniProt Q8TDU6)", "%", 95.2),
    ("Clc1ccc(Cl)c(-c2nc3ccccn3c2-c2nncn2-c2ccc3scnc3c2)c1 [Compound 518]", "human GPR131 (Homo sapiens, UniProt Q8TDU6)", "%", 98.4),
    ("Fc1ccc(-n2cnnc2-c2c(-c3cc(Cl)ccc3Cl)nc3ccccn23)cc1 [Compound 533]", "human GPR131 (Homo sapiens, UniProt Q8TDU6)", "%", 100),
]

This collection of values is drawn from patent US9593109B2.
